Catalogue of pIC50 readings, one per entry.
System: BACE1 (Homo sapiens, UniProt P56817)
Construct: endogenous in cells; host or cells: HEK293 stably transfected with human APP695 wt
Sequence (P56817 46-501): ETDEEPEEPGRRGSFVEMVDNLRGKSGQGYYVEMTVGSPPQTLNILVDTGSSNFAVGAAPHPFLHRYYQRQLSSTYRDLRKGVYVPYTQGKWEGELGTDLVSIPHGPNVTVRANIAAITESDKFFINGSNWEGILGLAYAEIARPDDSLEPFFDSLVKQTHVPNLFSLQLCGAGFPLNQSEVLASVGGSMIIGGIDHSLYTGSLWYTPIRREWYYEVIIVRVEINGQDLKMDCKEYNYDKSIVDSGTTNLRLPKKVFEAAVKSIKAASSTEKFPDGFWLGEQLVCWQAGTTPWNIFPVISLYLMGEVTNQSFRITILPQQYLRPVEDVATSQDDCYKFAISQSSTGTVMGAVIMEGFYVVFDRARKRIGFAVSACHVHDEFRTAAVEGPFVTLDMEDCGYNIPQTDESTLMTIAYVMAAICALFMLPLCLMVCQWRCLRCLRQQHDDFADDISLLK
Procedure text: Cellular Aβ-lowering assay a): HEK293 cells expressing human APP695, Aβ40 ELISA
Assay type: cell-based
Assay context: Aβ40 in supernatant by ELISA, 18-20 hrs incubation
Counter-ions that a name gives are not always drawn.
Just so you know, pIC50 here is -log10 of the concentration in molar units; reply with that number alone.

Ask: I am curious: what pIC50 value has been reported for CC1(C)OCC(N)=N[C@](C)(c2cc(-c3cnn(-c4ccc(F)cc4)c3)ccc2F)C1(F)F ?
Result: 6.28

Ask: Next: CC1(C)OCC(N)=N[C@](C)(c2cc(-c3cncnc3)c(F)cc2F)C1(F)F
Result: 8.15

Ask: Next: CC1(C)OCC(N)=N[C@](C)(c2cc(-c3ccc(C#N)cc3)c(F)cc2F)C1(F)F
Result: 6.37

Ask: Next: CC1(C)OCC(N)=N[C@](C)(c2cc(-c3cccc(C#N)c3)ccc2F)C1(F)F
Result: 6.73

Ask: Next: CC1(C)OCC(N)=N[C@](C)(c2cc(C#Cc3cccc(Cl)c3)ccc2F)C1(F)F
Result: 5.87

Ask: Next: CC1(C)OCC(N)=N[C@](C)(c2cc(-c3cc(Cl)cc(Cl)c3)ccc2F)C1(F)F
Result: 5.80

Ask: Next: CC1(C)OCC(N)=N[C@](C)(c2cc(-c3cccc(C#N)c3)c(F)cc2F)C1(F)F
Result: 6.10

Ask: Next: CC1(C)OCC(N)=N[C@](C)(c2cc(-c3cncnc3)ccc2F)C1(F)F
Result: 7.25

Ask: Next: CC1(C)OCC(N)=N[C@](C)(c2cc(-c3cncc(Cl)c3)ccc2F)C1(F)F
Result: 6.69

Ask: Next: Cc1nc(C#Cc2ccc(F)c([C@@]3(C)N=C(N)COC(C)(C)C3(F)F)c2)cs1
Result: 6.10

Ask: Next: CC1(C)OCC(N)=N[C@](C)(c2cc(C3CCOCC3)ccc2F)C1(F)F
Result: 6.19

Ask: Next: Cn1nccc1-c1ccc(F)c([C@@]2(C)N=C(N)COC(C)(C)C2(F)F)c1
Result: 6.27

Ask: Next: CC1(C)OCC(N)=N[C@](C)(c2cc(C3=CCOCC3)ccc2F)C1(F)F
Result: 6.37

Ask: Next: CC1(C)OCC(N)=N[C@](C)(c2cc(-c3nc4ccc(Cl)cc4o3)ccc2F)C1(F)F [Example 19, hydrochloride]
Result: 6.60

Ask: Next: C[C@]1(c2cc(-c3cncnc3)ccc2F)N=C(N)COCC1(F)F [Example 1, formate]
Result: 6.60

Ask: Next: CC1(C)OCC(N)=N[C@](C)(c2cc(-c3ccc(C#N)cc3F)ccc2F)C1(F)F
Result: 7.04

Ask: Next: CC1(C)OCC(N)=N[C@](C)(c2cc(-c3cc(F)cc(F)c3)ccc2F)C1(F)F
Result: 6.74

Ask: Next: CC1(C)OCC(N)=N[C@](C)(c2cc(-c3cncc(Cl)c3)c(F)cc2F)C1(F)F
Result: 7.09

---

System: endogenous cellular BACE2 (Rattus norvegicus, UniProt Q6IE75)
Construct: endogenous in cells
Sequence (Q6IE75 63-514): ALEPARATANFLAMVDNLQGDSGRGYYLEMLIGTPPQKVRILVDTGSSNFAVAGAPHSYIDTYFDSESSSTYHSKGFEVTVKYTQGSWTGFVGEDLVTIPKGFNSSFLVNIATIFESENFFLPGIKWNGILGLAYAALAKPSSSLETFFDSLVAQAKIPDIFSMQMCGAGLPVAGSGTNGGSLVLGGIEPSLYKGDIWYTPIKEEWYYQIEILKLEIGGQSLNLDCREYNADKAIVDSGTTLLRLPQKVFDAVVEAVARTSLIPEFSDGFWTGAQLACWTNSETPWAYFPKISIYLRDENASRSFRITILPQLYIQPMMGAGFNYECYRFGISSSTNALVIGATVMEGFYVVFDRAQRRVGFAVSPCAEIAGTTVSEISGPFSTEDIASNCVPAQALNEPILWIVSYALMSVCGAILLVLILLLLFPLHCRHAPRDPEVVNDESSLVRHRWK
Procedure text: Assay for BACE inhibition by measuring cellular TMEM27 cleavage (INS-TMEM27 cells, ELISA)
Assay context: INS-TMEM27 (Ins1e rat) cells, shed human TMEM27 by ELISA
Catalogue of IC50 readings, one per entry.
Only the number, expressed in nM, is required.

Example cases with answers are listed next.
> print(dat)
                                   compound  parameter.measured  readout.unit  test.result
1  CC1(C)OCC(N)=N[C@](C)(c2cc(-c3cc(Cl)cc(Cl)c3)ccc2F)C1(F)F [Example 10]                IC50            nM         1330
2  CC1(C)OCC(N)=N[C@](C)(c2cc(-c3cccc(C#N)c3)ccc2F)C1(F)F [Example 14]                IC50            nM          279

Next, consider the following compound.
Ask: I am curious: what IC50 value has been reported for CC1(C)OCC(N)=N[C@](C)(c2cc(-c3cncc(Cl)c3)ccc2F)C1(F)F [Example 4] ?
Result: 592

Cited source for all entries: patent US8877744B2
